- Tested on: enterovirus D68
- run description: Anti-viral activity against Enterovirus D68 US/MO/14-18949 infected in human RD cells assessed as reduction in virus induced cytopathic effect incubated for 3 days by CPE assay
- Format: functional, organism-based
- details: Enterovirus D, US/MO/14-18949, RD, 72 h
For each entry below, report its EC50 value.

*Q* Which EC50 value is on record for CC(C)n1ncc2c(C(=O)NCCN(C)C)cc(C3CC3)nc21 ?
*A* 100 nM

*Q* Which EC50 value is on record for CNCCNC(=O)c1cc(C2CC2)nc2c1cnn2C(C)C ?
*A* 200 nM

*Q* Which EC50 value is on record for Cc1cc(C(=O)NCCN(C)C)c2c(C)nn(C(C)(C)C)c2n1 ?
*A* 700 nM
